ASSAYED SYSTEM: T1, recombinant human TNFR2-hFc protein (human, UniProt P20333 23-257)
T1 construct: also called hTNFR2-Fc; human TNFR2-Fc; not shown: human Fc
T1 sequence: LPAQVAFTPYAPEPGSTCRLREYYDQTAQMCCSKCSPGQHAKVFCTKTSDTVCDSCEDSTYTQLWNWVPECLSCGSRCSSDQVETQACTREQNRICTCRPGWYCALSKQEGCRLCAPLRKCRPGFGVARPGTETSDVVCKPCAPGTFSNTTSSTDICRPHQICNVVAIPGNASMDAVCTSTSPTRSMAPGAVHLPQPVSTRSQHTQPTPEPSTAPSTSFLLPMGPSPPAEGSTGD
ASSAY DETAILS: flow cytometry; TNFR2-Fc binding to scFv displayed on yeast (FIGS. 6A-6C)
ASSAY METRIC: fold higher affinity (vs parental scFv) (fold)
One number for each entry, in fold.

Query block: Write down fold higher affinity (vs parental scFv) measured for item UC2.3.15 (S4-2 1D10-1G9-1H12) scFv (scFv) scFv: QVQLLESGGGLVQPGGSLRLSCAVSGFTFSTYAMSWIRQAPGKGLEWVSIISDGGDATVYADSVKGRFTISRDNSKNTLYLQMNSLRAEDTAVYYWARDGTSAAAFDSWGQGTLVTVSSANSGGSTSGSGKPGSGEGSSGSARDIQMTQSPSSLSASVGDRVTITCQASQDITNFLNWYQQKPGKAPKLLIYDASTLQTGVPSRFSGSGSGTDFTFTISSLQPEDIATYYCQQSDSYPITFGQGTKVEIKR
Result block: 10
